Hello, the source for this data is patent US11827701B2, in case you need it.

biological target: biotinylated (prokaryotic) IL-6 (Homo sapiens, UniProt P05231); test: Surface plasmon resonance (Biacore), biotinylated IL-6 captured on streptavidin sensor chip; type: binding; conditions: purified Fab
Sequence (P05231 30-212): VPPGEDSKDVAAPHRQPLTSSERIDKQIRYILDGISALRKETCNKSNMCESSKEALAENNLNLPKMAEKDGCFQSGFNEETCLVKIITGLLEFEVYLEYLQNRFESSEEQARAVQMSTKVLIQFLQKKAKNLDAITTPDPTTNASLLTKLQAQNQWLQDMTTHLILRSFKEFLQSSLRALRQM
Answer each item with its documented ka.
Expressed in M⁻¹ s⁻¹, but write only the number.

Q: If you can, please state the reported ka value of 18C7: antagonistic IL-6-specific Fab clone from immunized llama (antibody, listed as Lama glama, V domains shown) VH: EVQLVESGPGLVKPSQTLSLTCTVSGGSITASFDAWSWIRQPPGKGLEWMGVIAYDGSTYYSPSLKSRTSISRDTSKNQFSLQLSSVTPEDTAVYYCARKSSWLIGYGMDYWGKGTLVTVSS VL: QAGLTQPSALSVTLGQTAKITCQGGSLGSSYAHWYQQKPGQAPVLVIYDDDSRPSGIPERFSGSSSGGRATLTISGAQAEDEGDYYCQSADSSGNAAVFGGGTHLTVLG .
Result: 105000

Q: Can you handle 18C9: antagonistic IL-6-specific Fab clone from immunized llama (antibody, listed as Lama glama, V domains shown) VH: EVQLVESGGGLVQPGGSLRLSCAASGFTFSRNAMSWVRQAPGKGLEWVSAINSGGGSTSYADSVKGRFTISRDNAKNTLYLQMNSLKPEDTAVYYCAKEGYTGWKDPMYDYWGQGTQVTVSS VL: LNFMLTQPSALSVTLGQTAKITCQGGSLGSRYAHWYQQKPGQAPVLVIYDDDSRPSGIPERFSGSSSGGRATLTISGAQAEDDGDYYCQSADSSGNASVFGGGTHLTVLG next?
Result: 55600
